cytotoxicity at 10 µM overview
Assay: Toxicity liver stage against HepG2, at 10uM
Type: cell-based
Set-up: test concentration 10 uM, cell line HepG2-A16-CD81EGFP
Details: human, HepG2-A16-CD81EGFP cells; read-out: INHIBITION
Answer format reminder: number followed by unit.

Worked cases, cytotoxicity at 10 µM given:
# compound, cytotoxicity at 10 µM
rows = [
    ("Cc1cc(C)cc(NC(=O)Cc2c(C)nc3c(c2C)c(=O)[nH]n3C)c1", "10.6%"),
    ("NC(=O)C1CCN(C(=O)c2cc(S(=O)(=O)N3CCCC3)cs2)CC1", "-43.9%"),
    ("CNC(=O)CN1CCCC(Cc2ccccc2OC)C1 (centres undefined)", "-8.53%"),
    ("CC[C@@H](Cn1ncc2ccccc2c1=O)NC(=O)c1cnccn1", "6.4%"),
    ("Cc1cc(C)c2nc(C)c(C(=O)N3CCC(CCN(C)C)CC3)cc2c1", "-4.91%"),
]

Request: Recall and state the measured cytotoxicity at 10 µM for Cn1cc(-c2nc(C(=O)N3CCCC3c3cnn(C)c3)cs2)cn1 (centres undefined) .
Response: 1.85%

Request: Entry Cc1noc(CS(=O)(=O)c2cc(F)ccc2F)n1 needs its cytotoxicity at 10 µM filled in; supply it.
Response: -0.23%

Request: For Cc1ccc(CNC(=O)c2ccc(F)cc2)o1 , write its cytotoxicity at 10 µM.
Response: -3.35%

---

Assay: Toxicity liver stage against HepG2, at 10uM
Type: cell-based
Design: test concentration 10 uM, cell line HepG2-A16-CD81EGFP
Settings: human, HepG2-A16-CD81EGFP cells; read-out: INHIBITION
measurement.type: cytotoxicity at 10 µM (%)
Numbers only; they are read as %.

# compound, cytotoxicity at 10 µM [%]
rows = [
    ("c1cc(-c2c[nH]c([C@@H]3COCCN3Cc3ncc[nH]3)n2)ccn1", 4.99),
    ("O=C(c1ncccn1)N1C[C@H]2CCC[C@@]2(COCC2CCOCC2)C1", -1.11),
    ("CC(NC(=O)NC1CCN(Cc2ccccn2)CC1)c1nncn1C (stereo unspecified)", 0.335),
    ("CN(c1ncccc1C#N)C1CCN(Cc2ccncc2)CC1", -2.86),
    ("COC(=O)c1ccc(N2CCN(Cc3csc(C)n3)CC2)nn1", -1.7),
]

Request: Write down cytotoxicity at 10 µM measured for item Cc1cc(C2CCCN(CCNS(=O)(=O)c3ccccc3)C2)n[nH]1 (stereo unspecified)
Response: -28.5

Request: Look up and state reported cytotoxicity at 10 µM for Cc1cnc(CN2CCCC(c3cc(C(F)(F)F)[nH]n3)C2)cn1 (stereo unspecified)
Response: -0.168

Request: Tell me measured cytotoxicity at 10 µM for O=S(=O)(c1ccc(-c2cnco2)cc1)N1CCCC2(CCNCC2)CC1 please.
Response: -11.2

Request: Identify measured cytotoxicity at 10 µM associated with CN(C)C[C@@H]1C[C@@H]2CN(C(=O)Cc3cccs3)CC[C@@H]2N1C
Response: 0.375

Request: Identify measured cytotoxicity at 10 µM corresponding to Cn1c(NC(=O)CCS(=O)(=O)C2CCCC2)nc2cc(Cl)ccc21
Response: 7.42

Request: For the compound CCn1nc(C)c2nc(C(C)C)nc(NCC(C)C)c21 , report cytotoxicity at 10 µM.
Response: 15.5

---

Assay: Toxicity liver stage against HepG2, at 10uM
Type: cell-based
Parameters: test concentration 10 uM, cell line HepG2-A16-CD81EGFP
Details: human, HepG2-A16-CD81EGFP cells; read-out: INHIBITION
measurement.type: cytotoxicity at 10 µM

In the examples that follow, each entry is paired with its recorded cytotoxicity at 10 µM.
# compound, cytotoxicity at 10 µM
data = [
    ("Cn1cnc2c1C(COCC1CCOCC1)CN(Cc1ccccn1)C2 (stereo unspecified)", "-78.2%"),
    ("Cc1cc(C(=O)N2CCC3(CCCN(CC4CC4)C3=O)C2)c(C)n1C (stereo unspecified)", "-5.5%"),
    ("Cc1ccc(N2CCO[C@@H]3CN(Cc4cccc(C)n4)CC[C@@H]3C2)nn1", "7.67%"),
]

Request: In one line, give reported cytotoxicity at 10 µM of the entry CC[C@H]1CN(C(=O)c2cccnc2)CC[C@H]1CC(=O)NC1CC1 .
Response: 4.18%

Request: Input CCSCC(C)NCc1nn(C)c2ccc(C)cc12 (stereo unspecified) , output reported cytotoxicity at 10 µM.
Response: 1.71%

Request: # return recorded cytotoxicity at 10 µM for entry CC(C)(C)c1cc(CN2C[C@@H]3CC[C@H]2CN(Cc2ccccn2)C3)n[nH]1
Response: -0.123%

---

Assay: Toxicity liver stage against HepG2, at 10uM
Format: cell-based
Design: test concentration 10 uM, cell line HepG2-A16-CD81EGFP
Details: human, HepG2-A16-CD81EGFP cells; read-out: INHIBITION
measurement.type: cytotoxicity at 10 µM (%)
Note: unit % is implicit; provide only the numeric part.

Some compounds with known cytotoxicity at 10 µM results, for comparison:
# compound, measure.unit, cytotoxicity at 10 µM
data = [
    ("CN(C)[C@H]1C[C@@H](Cc2cc(-c3ccc(F)cc3)on2)C1(C)C", "%", -12.3),
    ("COc1cc(C)nc(N2CCN(C(=O)CCn3cc(C)cn3)CC2)n1", "%", -3.56),
    ("CCc1nccn1-c1cncc(C2CCCN2Cc2ccccc2)n1 (stereo unspecified)", "%", -1.17),
    ("CC(C)N1CCC(CC(=O)NCC2OCCc3ccccc32)CC1 (stereo unspecified)", "%", -4.65),
]

Request: Recall and state the measured cytotoxicity at 10 µM for CCc1nnc(CN(CC)C(=O)C2CCC(=O)N(C3CCCC3)C2)o1 (stereo unspecified) .
Response: 2.01

Request: Respond only with cytotoxicity at 10 µM recorded for O=C1CCC2(CCN(c3cccc(C(F)(F)F)n3)CC2)CN1CCO
Response: -18.2

Request: In one line, give reported cytotoxicity at 10 µM of the entry CN(C)CCn1nc(C2CCN(S(=O)(=O)N(C)C)C2)c2cccnc21 (stereo unspecified) .
Response: -2.15

Request: Annotate the compound Cc1cc(C)n(CCN2CCC(N(C)Cc3noc(C4CC4)n3)C2)n1 (stereo unspecified) with its measured cytotoxicity at 10 µM.
Response: -2.92

---

Experiment: Toxicity liver stage against HepG2, at 10uM
Type: cell-based
Set-up: test concentration 10 uM, cell line HepG2-A16-CD81EGFP
Details: human, HepG2-A16-CD81EGFP cells; read-out: INHIBITION
measurement.type: cytotoxicity at 10 µM
Give the number first and the unit second.

Use the examples below as a reference point.
# molecule, value.observed
records = [
    ("Cn1c(-c2ccc(F)cc2)cn2cc(C(=O)N3CCC(N)C3)nc2c1=O (stereo unspecified)", "4.43%"),
    ("CN(C)CCCC(=O)N1C[C@@H]2CC[C@H]1CN(Cc1ccccc1)C2", "-5.39%"),
    ("O=C(NCC(O)c1ccc(F)cc1F)c1cccnc1O (stereo unspecified)", "7.58%"),
    ("Cc1cccc(CN2CCC3(CC2)CC(c2cccnc2)C(=O)N3C)n1 (stereo unspecified)", "7.53%"),
    ("Cn1ccnc1CN1C(=O)CO[C@H]2CN(CCCc3ccccc3)C[C@H]21", "4.22%"),
]

Request: # return recorded cytotoxicity at 10 µM for entry CC(Cc1ccccc1Cl)NC(=O)Nc1cnn(CC(N)=O)c1 (stereo unspecified)
Response: -4.23%

Request: Quickly give me recorded cytotoxicity at 10 µM for COc1ccc(CN2CCOCC3(CCN(C4CCOCC4)C3)C2)cc1 (stereo unspecified)
Response: 0.466%

Request: Report cytotoxicity at 10 µM for Cc1nn(C)c(Oc2ccccc2)c1CNC1CCCCNC1=O (stereo unspecified)
Response: 2.56%

Request: Give the reported value of cytotoxicity at 10 µM for this record: CC(C)c1nnc2n1CCN(CC(=O)N1CCc3ccccc3C1)C2
Response: -5.92%

Request: Tell me measured cytotoxicity at 10 µM for COCC(C)N(Cc1ccccc1OC)C(=O)c1cc(C)[nH]c(=O)c1 (stereo unspecified) please.
Response: -3.73%

Request: Quick one: give measured cytotoxicity at 10 µM for CCS(=O)(=O)N1CCC2(CCCN(Cc3ccc(F)c(F)c3)C2=O)C1 (stereo unspecified)
Response: 17.6%

---

Assay: Toxicity liver stage against HepG2, at 10uM
Type: cell-based
Parameters: test concentration 10 uM, cell line HepG2-A16-CD81EGFP
Conditions: human, HepG2-A16-CD81EGFP cells; read-out: INHIBITION
Overview of reported cytotoxicity at 10 µM across a group of compounds:
Record the result as a number with its unit.

Worked cases, cytotoxicity at 10 µM given:
# compound, cytotoxicity at 10 µM
data = [
    ("Cc1cc(C(=O)N2CCc3nnc(N)cc3C2)c(C)n1-c1cccnc1", "-1.25%"),
    ("CN(C)CC1(O)CCCN(Cc2ccccc2OCC(=O)N(C)C)C1 (stereo unspecified)", "-1.21%"),
    ("Cc1nc(CN2CC[C@H]3[C@H]2CCN3c2ncccn2)cs1", "-0.603%"),
]

Request: Tell me its cytotoxicity at 10 µM given Cc1nnc2n1CCN(Cc1csc(CC(=O)N(C)C)n1)C2 as the entry.
Response: -7.08%

Request: Let me know recorded cytotoxicity at 10 µM for Cc1cc(C)c(N(CC(O)CNCc2ccccc2)S(C)(=O)=O)c(C)c1 (stereo unspecified) , thanks.
Response: -12.7%
